Data provenance is patent US5525596A.

# measurement.description: Plasma/blood exposure after administration of compressed tablets to the duodenum of dogs
# Format: in vivo, dog
# run.parameters: tablet, 1 mg/kg drug, 10 mg/kg palmitoyl carnitine chloride, presence of β-cyclodextrin (7.5 mg/kg), four hours
observation.type: area under concentration-time curve ± standard deviations

Supply recorded area under concentration-time curve ± standard deviations for C[C@@H](O)CNC(C)(C)CC(=O)N[C@@H]1CCc2ccccc2N(Cc2ccc(-c3ccccc3-c3nnn[nH]3)cc2)C1=O here.
19.8 ng·h/mL

* * *

# measurement.description: Absorption of solid formulations (powders, tablets, beads) from unligated sections of the jejunum of anesthetized rats (bile collection)
# Assay type: in vivo
# run.parameters: rat, 2 mg/kg, powder, 2 mg/kg drug, palmitoyl carnitine chloride 10 mg/kg, β-cyclodextrin 15 mg/kg, read-out: absorption determined as in Example 1 (± standard deviation)
# From the text: […]
observation.type: Fa (%)
Quick note: give the figure in %, leave out the unit.

Give the value of Fa reported for the following: C[C@@H](O)CNC(C)(C)CC(=O)N[C@@H]1CCc2ccccc2N(Cc2ccc(-c3ccccc3-c3nnn[nH]3)cc2)C1=O
14.8
